tested.system: T1, fragment DIR-II (last 27 amino acids of the sequence encoded by the retained intron of DIR) (human)
T1 construct: also called target fragment DIR-II
T1 peptide: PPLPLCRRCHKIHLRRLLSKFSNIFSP
test.name: ELISA, DIR-II coated; mAb (1 mg/mL) diluted 1:162k
test.readout: absorbance at 450 nm

{"binder": "DIR antibody IR-II-5 (antibody, V domains shown, Monoclonal antibody) VH: QVQLQQSGAEVMKPGASVKISCKATGYTFSSYWIEWIKQRPGHGLEWIGEILPGGYNTNSNENFKGKATFTADTSSNTAYMQLSSLTSEDSAVYYCARSGMITTTGDYYAMDYWGQGTSVTVSS VL: DIELTQSPASLAVSLGQRATISCKASQSVDYDGESYMNWYQQKPGQPPKLLIYAASNLESGIPARFSGSGSGTDFTLNIHPVEEEDAATYYCQQSNDDPRTFGGGTKLEIK", "test.readout": "absorbance at 450 nm", "value": "0.19 absorbance (450 nm)"}
{"binder": "DIR antibody IR-II-7 (antibody, V domains shown, Monoclonal antibody) VH: QVQLQQSGAELMKPGASVKISCKATGYTFSNYWIEWIKQRPGHGLEWIGEILPGSYYSTNYNEKFKDKATFTADTSSNTAYIQLSSLTSEDSAVYYCARSGIITTRGDYFAMDYWGQGTSVTVSS VL: DIVLTQSPASLAVSLGQRATISCKASQSVDYDGDSYMNWYQQKPGQPPKLLMYAASNLESGIPARFSGSGSGTDFTLNIHPVEEEDAATYYCQQSNEDPRTFGGGTKLEIK", "test.readout": "absorbance at 450 nm", "value": "0.164 absorbance (450 nm)"}
{"binder": "DIR antibody IR-II-6 (antibody, V domains shown, Monoclonal antibody; also called detection antibody) VH: QVQLQQSGAELMKPGASVKISCKATGYTFSRYWIEWIKQRPGHGLEWIGEILPGSYYSTNSNEKFKGKATFTADTSSNTAYMQLSSLTSEDSAVYYCARSGVITTRGDYFAMDYWGHGTSVTVSS VL: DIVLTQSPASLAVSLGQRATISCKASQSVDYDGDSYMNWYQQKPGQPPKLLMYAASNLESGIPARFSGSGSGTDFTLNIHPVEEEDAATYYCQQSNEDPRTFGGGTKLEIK", "test.readout": "absorbance at 450 nm", "value": "0.414 absorbance (450 nm)"}
